Data origin: patent US20250197467A1

Molecular target: T1, IL-18 receptor (IL-18Rαβ) on cells (UniProt Q13478 19-541; O95256 20-599, limits assumed)
T1 sequence (looked up) 1: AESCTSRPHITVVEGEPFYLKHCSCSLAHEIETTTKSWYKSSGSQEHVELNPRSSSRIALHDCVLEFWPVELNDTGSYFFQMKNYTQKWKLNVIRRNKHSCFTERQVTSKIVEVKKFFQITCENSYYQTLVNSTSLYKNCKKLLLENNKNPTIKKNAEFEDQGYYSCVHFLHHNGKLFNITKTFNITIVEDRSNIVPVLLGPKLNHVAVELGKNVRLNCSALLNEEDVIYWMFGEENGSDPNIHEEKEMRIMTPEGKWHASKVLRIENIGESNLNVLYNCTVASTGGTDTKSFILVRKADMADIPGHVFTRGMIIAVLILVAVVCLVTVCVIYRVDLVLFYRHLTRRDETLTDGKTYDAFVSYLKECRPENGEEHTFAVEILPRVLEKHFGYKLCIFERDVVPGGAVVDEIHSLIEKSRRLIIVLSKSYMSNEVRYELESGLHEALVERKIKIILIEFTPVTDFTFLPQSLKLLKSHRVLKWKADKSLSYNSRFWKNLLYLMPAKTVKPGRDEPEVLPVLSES
T1 sequence (looked up) 2: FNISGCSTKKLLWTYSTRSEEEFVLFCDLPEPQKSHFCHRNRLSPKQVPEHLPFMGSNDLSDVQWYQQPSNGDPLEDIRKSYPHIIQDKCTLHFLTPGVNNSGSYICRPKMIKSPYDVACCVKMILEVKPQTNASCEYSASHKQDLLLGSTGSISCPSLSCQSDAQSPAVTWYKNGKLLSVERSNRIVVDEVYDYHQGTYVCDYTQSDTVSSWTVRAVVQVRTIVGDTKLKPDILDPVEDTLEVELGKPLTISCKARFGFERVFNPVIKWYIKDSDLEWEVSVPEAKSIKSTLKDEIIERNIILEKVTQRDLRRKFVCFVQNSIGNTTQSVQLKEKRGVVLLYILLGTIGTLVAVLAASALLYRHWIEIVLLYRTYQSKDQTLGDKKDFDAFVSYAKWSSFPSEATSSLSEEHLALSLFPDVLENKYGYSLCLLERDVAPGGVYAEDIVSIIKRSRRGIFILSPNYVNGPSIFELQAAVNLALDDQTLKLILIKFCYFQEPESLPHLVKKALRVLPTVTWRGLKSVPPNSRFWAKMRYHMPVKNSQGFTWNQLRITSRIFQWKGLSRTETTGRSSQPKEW
Assay: cell-based or functional assay
Categories are defined by ranges of EC50 (IFNγ stimulation, NK92), namely range A (below 60 pM), range B (60 pM to below 600 pM), range C (600 pM or more)

Reference set (5 entries):
- binder: "C157 (ligand) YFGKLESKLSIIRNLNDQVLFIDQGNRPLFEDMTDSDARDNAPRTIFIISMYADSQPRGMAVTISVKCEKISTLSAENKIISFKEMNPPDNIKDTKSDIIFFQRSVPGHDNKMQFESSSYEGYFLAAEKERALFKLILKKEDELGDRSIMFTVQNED"
  cat: "range A"
- binder: "SEQ ID NO 49 (ligand) YFGKLKSKLSVIRNLNDQVLFIDQGNRPLFEDMTDSDSRDNAPRTIFIISMYADAQPRGMAVTISVKSECISTLSSENKIISFKEMNPPDNIKDTKSDIIFFQRSVPGHDNKMQFESSSYEGYFLASEKERDLFKLILKKEDELGDRSIMFTVQNED"
  cat: "range C"
- binder: "SEQ ID NO 62 (ligand) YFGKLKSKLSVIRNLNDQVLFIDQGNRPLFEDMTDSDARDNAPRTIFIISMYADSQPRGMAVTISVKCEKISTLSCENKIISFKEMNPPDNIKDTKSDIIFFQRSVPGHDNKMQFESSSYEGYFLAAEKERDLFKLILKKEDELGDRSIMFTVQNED"
  cat: "range A"
- binder: "C158 (ligand) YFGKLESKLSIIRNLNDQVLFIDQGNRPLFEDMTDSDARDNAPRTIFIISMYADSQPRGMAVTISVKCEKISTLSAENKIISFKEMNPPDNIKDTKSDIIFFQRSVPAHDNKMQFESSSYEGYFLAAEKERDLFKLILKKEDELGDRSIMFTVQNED"
  cat: "range B"
- binder: "C161 (ligand) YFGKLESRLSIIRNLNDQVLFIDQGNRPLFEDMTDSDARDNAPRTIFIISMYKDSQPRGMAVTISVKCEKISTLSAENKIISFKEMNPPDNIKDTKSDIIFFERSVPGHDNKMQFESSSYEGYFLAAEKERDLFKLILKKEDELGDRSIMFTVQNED"
  cat: "range A"

Which bin, given its EC50 (IFNγ stimulation, NK92), does C156 (ligand) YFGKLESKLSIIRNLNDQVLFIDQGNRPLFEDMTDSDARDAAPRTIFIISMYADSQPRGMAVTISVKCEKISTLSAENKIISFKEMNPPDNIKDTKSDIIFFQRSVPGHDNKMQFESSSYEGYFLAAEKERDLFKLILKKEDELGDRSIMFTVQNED occupy? range B

Tag the class for SEQ ID NO 42 (ligand) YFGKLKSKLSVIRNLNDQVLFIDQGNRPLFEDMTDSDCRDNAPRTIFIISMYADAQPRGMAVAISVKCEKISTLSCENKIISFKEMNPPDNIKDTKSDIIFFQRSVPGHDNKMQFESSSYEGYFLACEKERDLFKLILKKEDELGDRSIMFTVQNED range B

Exam item: assign SEQ ID NO 35 (ligand) GAGKLKSKLSVIRNLNDQVLFIDQGNRPLFEDMTDSDCRDNAPRTIFIISGYAAAQPRGMAVAISVKCEKISTLSCENKIISFKEMNPPDNIKDTKSDIIFFQRSVPGHDNKMQFESSSYEGYFLACEKERDLFKLILKKEDELGDRSIMFTVQNED to the correct category. range C

GET /class?item= SEQ ID NO 45 (ligand) YFGKLKSKLSVIRNLNDQVLFIDQGNRPLFEDMTDSDCRDNAPRTIFIISMYAAAQPRGMAVTISVKCEKISTLSCENKIISFKEMNPPDNIKDTKSDIIFFQRSVPGHDNKMQFESSSYEGYFLACEKERDLFKLILKKEDELGDRSIMFTVQNED range C

Bin? C150 (ligand) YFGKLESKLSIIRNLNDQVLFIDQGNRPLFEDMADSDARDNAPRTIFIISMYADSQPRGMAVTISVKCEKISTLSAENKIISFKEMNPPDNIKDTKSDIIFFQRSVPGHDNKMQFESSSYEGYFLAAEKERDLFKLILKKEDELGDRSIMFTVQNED range A

Any idea which band C146 (ligand) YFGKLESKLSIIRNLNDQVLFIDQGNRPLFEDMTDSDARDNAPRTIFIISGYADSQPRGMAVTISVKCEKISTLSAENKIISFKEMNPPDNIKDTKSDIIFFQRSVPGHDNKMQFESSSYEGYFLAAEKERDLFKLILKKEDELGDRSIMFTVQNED is in? range A

Into which bin does this binder go? SEQ ID NO 46 (ligand) YFGKLKSKLSVIRNLNDQVLFIDQGNRPLFEDMTDSDCRDNAPRTIFIISGYADAQPRGMAVTISVKCEKISTLSCENKIISFKEMNPPDNIKDTKSDIIFFQRSVPGHDNKMQFESSSYEGYFLACEKERDLFKLILKKEDELGDRSIMFTVQNED range C
